testMethodNotes: Fe^2+ chelation assay (ferrozine competition)
testSettings: 117.64 µg/mL
Hi there, I'd appreciate the recorded Ferrous ions Chelation Capacity (%) for every entry that follows.

Q: What does the record list as Ferrous ions Chelation Capacity (%) for C=CCn1c(SCC(=O)NN=Cc2ccc(O)c(O)c2O)nc2ccccc2c1=O [Compound 5a] ?
Ans: 45.93%

Q: What does the data say about its Ferrous ions Chelation Capacity (%)? Entry: CCCCn1c(SCC(=O)NN=Cc2ccc(O)c(O)c2O)nc2ccccc2c1=O [Compound 5d]
Ans: 58.18%

Q: // Ferrous ions Chelation Capacity (%) lookup, key: CCn1c(SCC(=O)NN=Cc2ccc(O)c(O)c2O)nc2ccccc2c1=O [Compound 5c]
Ans: 20.27%

Hello, the source for this data is paper PMC9867241, in case you need it.
